Parameter: IC50. Scope: all listed entries.
Measured on: Recombinant human Cbl-b (aa 36-427) (Homo sapiens (Human))
Sequence (Q13191 36-427): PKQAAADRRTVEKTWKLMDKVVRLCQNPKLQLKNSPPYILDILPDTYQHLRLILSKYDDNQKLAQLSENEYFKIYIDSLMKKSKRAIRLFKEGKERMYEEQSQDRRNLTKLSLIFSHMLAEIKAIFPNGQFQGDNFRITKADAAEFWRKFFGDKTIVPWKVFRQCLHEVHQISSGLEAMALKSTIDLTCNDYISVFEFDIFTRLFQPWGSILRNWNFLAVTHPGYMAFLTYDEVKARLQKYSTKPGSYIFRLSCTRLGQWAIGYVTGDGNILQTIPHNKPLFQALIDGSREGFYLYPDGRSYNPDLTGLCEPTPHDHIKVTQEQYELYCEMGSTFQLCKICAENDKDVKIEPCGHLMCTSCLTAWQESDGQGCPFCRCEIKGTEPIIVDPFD
Protocol description: Cbl-b Biochemical Assay (TR-FRET)
Run parameters: read-out: TR-FRET hCbl-b IC50
Assay endpoint: IC50

Cn1cnnc1-c1ccccc1-c1cc(N2Cc3c(cccc3C(F)(F)F)C2=O)nc(C(F)(F)F)c1 [Example J-4]: 10000 to 50000 nM
CC(=O)NCCNCc1ccc2c(c1)C(=O)N(c1cc(-c3ccc(C#N)cc3-c3nncn3C)cc(C3CC3)n1)C2 [AMB-1]: ≤ 200 nM
CN(C)C(=O)CN(Cc1ccc2c(c1)C(=O)N(c1cc(-c3ccc(C#N)cc3-c3nncn3C)cc(C3CC3)n1)C2)CC1COC1 [AON-2]: ≤ 200 nM
Cn1cnnc1-c1ccccc1-c1cccc(N2Cc3c(cc(COC4CCOCC4)cc3C(F)(F)F)C2=O)c1 [BD-3]: ≤ 200 nM
Cn1cnnc1-c1cnccc1-c1cccc(N2Cc3c(cccc3C(F)(F)F)C2=O)c1 [AAY-6]: 1000 to 10000 nM
Cn1cnnc1-c1cc(C#N)ccc1-c1cc(C2CC2)nc(N2Cc3c(F)cc(CN[C@]4(C)COC[C@@H]4O)cc3C2=O)c1 (stereo in doubt) [AOF-9]: < 200 nM
Cn1cnnc1-c1ccccc1-c1cc(N2Cc3c(cccc3C(F)(F)F)C2=O)nc(C2(CO)CC2)c1 [ACU-2]: ≤ 200 nM

Every entry's value here was drawn from patent US12325697B2.
